assay: physchem; format: physicochemical; settings: water, drug alone, read-out: soluble in water
measured_endpoint: solubility

>>> reported("CCCCCCCCCCCCCCCCNc1ccc(C(=O)[O-])cc1.[Na+]")
"1 µg/mL"

The measurements presented in this section are drawn from patent US4311694A.
